Just for reference, patent US20210087291A1 is where these values come from.

As shown below, each of these binders has a reported specific binding MFI value.
Biological target: T1, human TIM-3 on cells (human, UniProt Q8TDQ0 22-301)
T1 construct: also called CHO-Tim3; rec CHOK1 cells expressing huTIM-3
Assay: flow cytometry, human CD14+ monocytes donor1
readout name: specific binding MFI (MFI)

[[record]]
binder = "Tim3_0016 variant (Tim3_0018) (antibody, V domains shown, also called TIM3-0016 variant (0018); aTim3 0018) VH: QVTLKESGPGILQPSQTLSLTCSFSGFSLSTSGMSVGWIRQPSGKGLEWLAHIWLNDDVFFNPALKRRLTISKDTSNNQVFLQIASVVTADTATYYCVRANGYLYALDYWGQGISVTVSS VL: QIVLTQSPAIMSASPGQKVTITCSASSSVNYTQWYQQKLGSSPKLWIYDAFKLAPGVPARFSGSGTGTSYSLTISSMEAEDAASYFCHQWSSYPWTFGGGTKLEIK"
observed = 2330

[[record]]
binder = "Tim3_0033 (antibody, V domains shown) VH: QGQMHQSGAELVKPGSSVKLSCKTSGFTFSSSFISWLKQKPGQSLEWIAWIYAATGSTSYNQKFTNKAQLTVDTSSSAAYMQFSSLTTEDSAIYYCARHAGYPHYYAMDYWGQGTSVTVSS VL: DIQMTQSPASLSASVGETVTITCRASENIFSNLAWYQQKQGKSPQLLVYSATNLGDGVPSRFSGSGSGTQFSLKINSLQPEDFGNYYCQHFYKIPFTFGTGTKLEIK"
observed = 480

[[record]]
binder = "Tim3_0016 (antibody, V domains shown, also called clone 0016) VH: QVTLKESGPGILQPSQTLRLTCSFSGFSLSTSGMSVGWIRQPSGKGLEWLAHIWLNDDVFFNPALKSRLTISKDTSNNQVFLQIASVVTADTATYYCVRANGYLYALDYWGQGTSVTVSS VL: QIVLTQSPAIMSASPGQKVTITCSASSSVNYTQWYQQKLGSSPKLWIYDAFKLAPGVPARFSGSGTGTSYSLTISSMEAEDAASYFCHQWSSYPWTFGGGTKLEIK"
observed = 2120

